Assay: Cytotoxicity for human non-tumoral cells, XTT
Format: cell-based
Conditions: HUVEC cells (primary, from human cords)
measured_quantity: IC50 at 72 h (µM)
Write down the numeric answer in µM and omit the unit.

Looking for the measured IC50 at 72 h of C(CCCNCc1cccs1)=C(c1ccccc1)c1ccccc1.Cl [Compound 6, hydrochloride] , can you help?
27

Looking for the measured IC50 at 72 h of COc1cccc2c1C(=O)c1c(O)c3c(c(O)c1C2=O)C[C@@](O)(C(=O)CO)C[C@@H]3O[C@H]1C[C@H](N)[C@H](O)[C@H](C)O1 [Doxorubicin, reference compound] , can you help?
0.23

----------
// IC50 at 72 h lookup, one value per entry
Assay: Cytotoxicity for human non-tumoral cells, XTT
Type: cell-based
Settings: Fibroblasts
// units = µM; emit number, no label

Fc1ccc(CNCCCC=C(c2ccccc2)c2ccccc2)cc1; 19
C(CCCNCc1cccs1)=C(c1ccccc1)c1ccccc1.Cl [Compound 6, hydrochloride]; 24

Recorded IC50 at 72 h of CC(=O)O[C@H]1C(=O)[C@@]2(C)[C@H]([C@H](OC(=O)c3ccccc3)[C@]3(O)C[C@H](OC(=O)[C@H](O)[C@@H](NC(=O)c4ccccc4)c4ccccc4)C(C)=C1C3(C)C)[C@]1(OC(C)=O)CO[C@@H]1C[C@@H]2O [Taxol, reference compound] , please.
0.00075

----------
Test system: HCT116
Test: In vitro cytotoxicity, SRB method
Type: cell-based
Conditions: Homo sapiens, HCT-116, HCT116 colon cancer, 72 hours
measured_quantity: IC50

C(CCCCNc1ncnc2[nH]ncc12)=C(c1ccccc1)c1ccccc1 [Compound 40]; 5 to 50 µM
C(CCCNCc1cccs1)=C(c1ccccc1)c1ccccc1.Cl [Compound 6, hydrochloride]; 8.1 µM
CC(C)n1ncc2c(NCCCCC=C(c3ccccc3)c3ccccc3)ncnc21 [Compound 44]; 5 to 50 µM
C(CCCNc1ncnc2[nH]ncc12)=C(c1ccccc1)c1ccccc1 [Compound 41]; 5 to 50 µM

Now for a further compound.
Sample C(CCCNCc1ccco1)=C(c1ccccc1)c1ccccc1.Cl [Compound 8, hydrochloride] — what was its IC50?
5 to 50 µM

----------
Reported pIC50 values are given for each entry in this list.
Tested on: Malm-3M
Assay: In vitro cytotoxicity, SRB method
Format: cell-based
Details: Malm-3M melanoma, 72 hours
# pIC50 is unitless: minus log10 of the molar concentration; print number only

Observe how each entry below is paired with its result.
C(CCCNCc1cccs1)=C(c1ccccc1)c1ccccc1.Cl [Compound 6, hydrochloride]; 4.89
C(CCCCNc1ncnc2[nH]ncc12)=C(c1ccccc1)c1ccccc1 [Compound 40]; 4.52
C(CCCNc1ncnc2[nH]ncc12)=C(c1ccccc1)c1ccccc1 [Compound 41]; 4.36

Which pIC50 value belongs to C(CCCNCc1ccco1)=C(c1ccccc1)c1ccccc1.Cl [Compound 8, hydrochloride] ?
4.80

Requested read-out: pIC50. Entry: CC(C)n1ncc2c(NCCCCC=C(c3ccccc3)c3ccccc3)ncnc21 [Compound 44]
4.40

----------
measured_quantity: melting point

# count of solved cases: 8
C(CCCNCc1ccco1)=C(c1ccccc1)c1ccccc1.Cl [Compound 8]; 139 to 141.3 °C
Clc1nc(NCCCCC=C(c2ccccc2)c2ccccc2)c2nc[nH]c2n1 [Compound 29]; 205.7 to 207 °C
Cl.FC(F)(F)Oc1ccccc1CNCCCC=C(c1ccccc1)c1ccccc1 [Compound 10]; 109 to 110.7 °C
Cl.FC(F)(F)Oc1ccc(CNCCC=C(c2ccccc2)c2ccccc2)cc1; 126 to 128 °C
C(CCCNCc1cccs1)=C(c1ccccc1)c1ccccc1.Cl [Compound 6]; 161 to 161.6 °C
C(CCCNCc1nc2ccccc2[nH]1)=C(c1ccccc1)c1ccccc1.Cl [Compound 11]; 251 to 253.8 °C
C(CCCNCc1ccsc1)=C(c1ccccc1)c1ccccc1.Cl; 108 to 109.7 °C
Cl.FC(F)(F)c1ccc(CNCCCC=C(c2ccccc2)c2ccccc2)cc1; 121.4 to 122.7 °C

Which value of melting point has been reported for Cl.FC(F)(F)Oc1ccc(CNCCCCC=C(c2ccccc2)c2ccccc2)cc1 in the records?
109 to 110.5 °C

What does the record list as melting point for Cl.FC(F)(F)Oc1cccc(CNCCCC=C(c2ccccc2)c2ccccc2)c1 ?
102.4 to 104 °C

Value lookup for melting point; key = C(CCNCc1cccs1)=C(c1ccccc1)c1ccccc1.Cl [Compound 13]
163 to 165.5 °C

What measured melting point goes with Cl.FC(F)(F)Oc1cccc(CNCCCCC=C(c2ccccc2)c2ccccc2)c1 [Compound 15] ?
96.6 to 98.5 °C

For C(CCCNCc1ccccn1)=C(c1ccccc1)c1ccccc1.Cl , what is its reported melting point?
125 to 126.9 °C

State the recorded melting point for this entry: COc1ccc(CNCCCC=C(c2ccccc2)c2ccccc2)cc1.Cl
69.2 to 73.8 °C
